- STUDY SYSTEM: human recombinant ATX (Homo sapiens, UniProt Q13822)
- ASSAY PROTOCOL: Autotaxin (ATX) activity Quanta Red assay
- Assay type: biochemical
- CONDITION NOTES: read-out: Activity (ATX activity, Quanta Red assay; IC50)
QUANTITY KIND: IC50 (nM)

CC(C)(C)OC(=O)N1CCC[C@H](CNC(=O)CCc2nc3cccnc3n2Cc2ccc(OC(F)(F)F)cc2)C1 [Example 66] | 162
C[C@H](NC(=O)CCc1nc2cccnc2n1Cc1cccs1)c1ccc(Cl)cc1 [Example 44] | 12
C[C@H](NC(=O)CCc1nc2cccnc2n1Cc1ccc(F)c(F)c1)c1ccc(CN(C)C)cc1 [Example 208] | 80
COc1ccc(Cn2c(CCC(=O)N[C@@H](C)c3ccc(C)cc3)nc3cccnc32)cc1 [Example 90] | 9

(P) CN(C)c1ccc(CNC(=O)CCc2nc3cccnc3n2Cc2ccc(OC(F)(F)F)cc2)cc1 [Example 31]
(Q) C[C@H](NC(=O)CCc1nc2cccnc2n1Cc1ccc(F)c(F)c1)c1ccc(N2CCNCC2)cc1 [Example 193]
(R) C[C@H](NC(=O)CCc1nc2cccnc2n1Cc1ccc(F)c(F)c1)c1ccc(N2CCN[C@@H](C)C2)cc1 [Example 184]
// query Kindly order the items shown according to IC50, from the highest value down. // rank by listing labels in the order requested
// result Q, R, P
(Q: 83 nM, R: 12 nM, P: 6 nM)

====

- STUDY SYSTEM: human recombinant ATX (Homo sapiens, UniProt Q13822)
- ASSAY PROTOCOL: Autotaxin (ATX) activity Quanta Red assay
- Format: biochemical
- CONDITION NOTES: read-out: Activity (ATX activity, Quanta Red assay; IC50)
- Method: The reaction was stopped after 2 hours with a 20 μL addition of Quanta Red Stop solution (1:20 dilution in distilled water). The above-described mixture with DMSO alone was used as a positive control whereas that with DMSO alone without ATX was taken as a negative control. Fluorescence was determined in a BMG Labtech Pherastar plus plate reader ([…]). Data were analysed using Excel fit software. IC50 values were determined in duplicate.
QUANTITY KIND: IC50 (nM)

Take a look at these entries with their results.
C[C@H](NC(=O)CCc1cc2cccnc2n1Cc1ccc(OC(F)(F)F)cc1)c1ccc(F)cc1 | 10
O=C(CCc1nc2cccnc2n1Cc1ccc(F)c(F)c1)N[C@H](Cc1ccccc1)C(=O)O | 37
COc1ccc(Cn2c(CCC(=O)NCc3ccccc3C)nc3cccnc32)cc1 | 98
O=C(CCc1nc2ccncc2n1Cc1ccc(OC(F)(F)F)cc1)NCc1ccc(F)cc1 | 52
CS(=O)(=O)N1CCC(CNC(=O)CCc2nc3cccnc3n2Cc2ccc(OC(F)(F)F)cc2)CC1 | 30
O=C(CCc1nc2cccnc2n1Cc1ccc(OC(F)(F)F)cc1)Nc1nncs1 | 267

(I) O=C(CCc1nc2cccnc2n1Cc1ccc(OC(F)(F)F)cc1)N[C@@H]1c2ccccc2C[C@H]1O
(II) C[C@H](NC(=O)CCc1nc2cccnc2n1Cc1ccc(F)cc1)c1ccc(N2CCC(CO)CC2)cc1
// query Looking at recorded values for IC50, does I or II come in lower? Write down the label of the entry you select.
// result I
(I: 1 nM, II: 7 nM)

(I) COc1ccc(CNC(=O)CCc2nc3cccnc3n2Cc2cccc(C)c2)cc1
(II) COc1ccc(Cn2c(CCC(=O)NCc3ccccc3F)nc3cccnc32)cc1
(III) O=C(CCc1nc2cccnc2n1Cc1ccc(OC(F)(F)F)cc1)NC(CO)c1ccc(OC(F)(F)F)cc1 (stereo not drawn)
// query Put the items in sequence by IC50, from largest down. Put the labels in the requested order and list them out.
// result I, II, III
(I: 726 nM, II: 301 nM, III: 3 nM)
